target: T1, GFP-His6 (eGFP) (Aequorea victoria, UniProt P42212 2-238 = GFP); assay: SPR, GFP immobilized
T1 construct: SPR and bead assays speak only of recombinant GFP or eGFP; also called recombinant GFP; A. victoria (Av) GFP
# Kd annotations
Reply with just the number (in nM).

A selection of reference data follows.
LaG-2 (VHH, that range is inconsistent in itself; not shown: PreScission Protease cleavage site and C-terminal 6xHis tag) VHH: QVQLVESGGGLVQAGGSLRLSCAASGRTFSNYAMGWFRQAPGKEREFVAAISWTGVSTYYADSVKGRFTISRDNDKNTVYVQMNSLIPEDTAIYYCAAVRARSFSDTYSRVNEYDYWGQGTQVTV : 16
LaG-14 (VHH) VHH: QVQLVESGGGLVQAGGSLRLSCAASGRTYSISAMGWFRQAPGKEREFVAGISRSGGTTYYADPVKGRFTISRDNAKNTVYLQMNSLKPEDTAVYYCAARARGWTTFPAREIEYDYWGQGTQVTV : 1.9
LaG-3 (VHH) VHH: QVQLVESGGGLVQAGGSLRVSCAASGRTYSDYAMGWFRQAPGKERDFVAGISGSGGDTYYADSVKGRFTISRDNAKNTMYLQMNSLKPEDTAVYFCAARTGTVLFTSRVDYRYWGQGTQVTV : 25
LaG-9 (VHH) VHH: DVQLVESGGGLVQAGGSLRLSCAASGRTFSTSAMGWFRQAPGKEREFVARITWSAGYTAYSDSVKGRFTISRDKAKNTVYLQMNSLKPEDTAVYYCASRSAGYSSSLTRREDYAYWGQGTQVTVS : 3.5
LaG-16 (VHH, Conjugated to Alexa Fluor 568 (succinimidyl ester, on amines) in the microscopy result. The letters are unchanged., Conjugated to Alexa Fluor 568 for microscopy) VHH: QVQLVESGGRLVQAGDSLRLSCAASGRTFSTSAMAWFRQAPGREREFVAAITWTVGNTILGDSVKGRFTISRDRAKNTVDLQMDNLEPEDTAVYYCSARSRGYVLSVLRSVDSYDYWGQGTQVTVS : 0.7

Query: Field request: Kd | item: LaG-24 (VHH) VHH: DVQLVESGGGLVQPGGSLRLSCAASGEIASIIAIGWYRQAPGKQRESVALITRSGMITYGDSAQGRFTISRDDAKNTVYLHMDDLVPEDTAVYYCNAKKVSFGDYWGQGTQVTVS
Reply: 41

Query: Need Kd, item LaG-21 (VHH) VHH: QVQLVESGGGLVQAGGSLRLSCAASGPTGAMAWFRQAPGMEREFVGGISGSETDTYYADFVKGRLTVDRDNVKNTVDLQMNSLKPEDTAVYYCAARRRVTLFTSRADYDFWGQGTQVTVS
Reply: 7

Query: Look up Kd: LaG-27 (VHH) VHH: DVQLVESGGGLVQAGGSLRLSCTASGLTISTYNIGWFRQAPGKEREFVGIIIRNGDTTYYADSVKGRFTISRDNAKNTVYLQMNSVKPADAAVYSCGATVRAGAAAEQYNSYIFRGQGTQVTV
Reply: 9.5
